MEASURED_TARGET: T1, native human IP-10 (hIP-10) (human, UniProt P02778 22-98)
T1 sequence (looked up): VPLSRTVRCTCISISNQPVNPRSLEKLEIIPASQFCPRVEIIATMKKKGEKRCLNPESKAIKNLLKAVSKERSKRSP
ASSAY_DETAILS: cell-based or functional assay
RECORDED_ENDPOINT: Chemotaxis IC50 (nM); native hIP-10 at 0.6 nM
The figure you give is taken to be in nM; do not add the unit.

Need Chemotaxis IC50 (nM); native hIP-10 at 0.6 nM of NI-0801, IgG1 format (antibody, V domains shown, Claims 7 and 21 swap the heavy and light chain numbers) VH: QVQLVESGGGVVQPGRSLRLSCAASGFTFSNSGIHWVRQAPGKGLEWVAVISYDGSNKYYADSVKGRFTISRDNSKNTLYLQMNSLRAEDTAVYYCARLRDNAEYTDYWGQGTLVTVSS VL: NFMLTQPHSVSESPGKTVTISCTGSGGSIASNYVQWYQQRPGSSPTTVIYEDNQRPSGVPDRFSGSIDSSSNSASLTISGLKTEDEADYYCQSYDPLPVWVFGGGTKLTVLG , thanks.
0.58

Now the same for CF1H1R3P4_B5, IgG1 format (antibody, V domains shown) VH: QVQLVESGGGVVQPGRSLRLSCAASGFTFSNSGIHWVRQAPGKGLEWVAVISYDGSNKFYADSVKGRFTISRDNSKNTLYLQMNSLRAEDTAVYYCAKLRDNGEYLDYWGQGTLVTVSS VL: NFMLTQPHSVSESPGKTVTISCTGSGGSIDRNYVQWYQQRPGSSPTTVIYEDNQRPSGVPDRFSGSIDSSSNSASLTISGLKTEDEADYYCQSYVETPEWVFGGGTKLTVL
1.2
